# Test system: P-gp (rat Mdr1a)
# TEST METHOD NOTES: in vitro
# DETAILS: pH 7.4, permeability in the A–B direction, late passages (14–16)
QUANTITY: Papp A→B at 120 min (×10⁻⁶ cm/s)
# value in ×10⁻⁶ cm/s; strip the unit string

Notebook entry, P-gp (rat Mdr1a) assay: Papp A→B at 120 min of `C[C@H]1O[C@@H](O[C@H]2[C@@H](O)C[C@H](O[C@H]3[C@@H](O)C[C@H](O[C@H]4CC[C@@]5(C)[C@H](CC[C@@H]6[C@@H]5C[C@@H](O)[C@]5(C)[C@@H](C7=CC(=O)OC7)CC[C@]65O)C4)O[C@@H]3C)O[C@@H]2C)C[C@H](O)[C@@H]1O` = ? 0.68
